Reference for the values: ChEMBL document CHEMBL2424629

# Test system: Mus musculus
# method_summary: Neurotoxicity in BALB/c mouse at 300 mg/kg, ip after 0.5 to 4 hrs by rotarod test
# Assay type: toxicity, organism-based
# Set-up: dose 300 mg/kg, route intraperitoneal
# protocol_conditions: in vivo
outcome_measure: Activity

# example entries with known answers
Incoming: Tell me its Activity given O=C(CN1C(=O)C(=O)c2cc(F)ccc21)Nc1ccccc1 as the entry.
Outgoing: Non-toxic

Incoming: Tell me its Activity given Cc1ccc2c(c1)C(=O)C(=O)N2CC(=O)Nc1ccccc1 as the entry.
Outgoing: Non-toxic

Incoming: Tell me its Activity given O=C(CN1C(=O)C(=O)c2ccc(Cl)cc21)Nc1ccccc1 as the entry.
Outgoing: Non-toxic

Incoming: Tell me its Activity given Cc1cccc2c1N(CC(=O)Nc1ccccc1)C(=O)C2=O as the entry.
Outgoing: Non-toxic

Incoming: Tell me its Activity given O=C(CN1C(=O)C(=O)c2ccccc21)Nc1ccccc1 as the entry.
Outgoing: Non-toxic

More entries:
Incoming: Tell me its Activity given O=C(CN1C(=O)C(=O)c2cccc(Br)c21)Nc1ccccc1 as the entry.
Outgoing: Non-toxic

Incoming: Tell me its Activity given O=C1Nc2ccccc2C1=O as the entry.
Outgoing: Non-toxic

Incoming: Tell me its Activity given O=C(CN1C(=O)C(=O)c2ccc(Br)cc21)Nc1ccccc1 as the entry.
Outgoing: Non-toxic

Incoming: Tell me its Activity given O=C(CN1C(=O)C(=O)c2cccc([N+](=O)[O-])c21)Nc1ccccc1 as the entry.
Outgoing: Non-toxic

Incoming: Tell me its Activity given O=C(CN1C(=O)C(=O)c2cc(Cl)ccc21)Nc1ccccc1 as the entry.
Outgoing: Non-toxic
